src = ChEMBL document CHEMBL1799910

Test: Partition coefficient, log D of the compound at pH 7.4 by HPLC analysis
Conditions: octanol/water
Property Name: logD

| Compound | Property Name | Readout Number |
| --- | --- | --- |
| Cc1ccc(C)c2c(=O)c3c([nH]c12)CCCC3 | logD | 2.6 |
| COc1cc2[nH]c3c(c(=O)c2cc1Cl)CSCC3 | logD | 1 |
| O=c1c2c([nH]c3cc(-c4ccc(C(F)(F)F)cc4)ccc13)CCCC2 | logD | 2.45 |
| O=c1c2c([nH]c3cc(C(F)(F)F)ccc13)CCCC2 | logD | 2.7 |
| COc1ccc2c(=O)c3c([nH]c2c1)CC(C)(C)CC3 | logD | 2.2 |
| O=c1c2c([nH]c3c(F)cc(F)cc13)CCCC2 | logD | 1.7 |
| CC1(C)CCc2c([nH]c3c(Cl)cccc3c2=O)C1 | logD | 3 |
| Cc1ccc2c(=O)c3c([nH]c2c1)CCC(C)(C)C3 | logD | 2.4 |
| Cc1ccc2c(=O)c3c([nH]c2c1)CC(C)(C)CC3 | logD | 2.49 |
| O=c1c2c([nH]c3cc(F)cc(F)c13)CCCC2 | logD | 1.5 |
| CC(C)(C)c1ccc2[nH]c3c(c(=O)c2c1)CCCC3 | logD | 2.8 |
| COc1cc2[nH]c3c(c(=O)c2cc1Cl)CS(=O)(=O)CC3 | logD | 1 |
| COc1cccc2[nH]c3c(c(=O)c12)CCCC3 | logD | 1.2 |
| O=c1c2c([nH]c3ccc(-c4ccc(C(F)(F)F)cc4)cc13)CCCC2 | logD | 3.6 |
| O=c1c2c([nH]c3cc(Cl)cc(Cl)c13)CCCC2 | logD | 2.5 |
| COc1cc2[nH]c3c(c(=O)c2cc1C)CCCC3 | logD | 2 |
| Cc1cccc2[nH]c3c(c(=O)c12)CC(C)(C)CC3 | logD | 2.7 |
| CC(C)Oc1cc2[nH]c3c(c(=O)c2cc1Cl)CCCC3 | logD | 2.9 |
| O=c1c2c([nH]c3cc(C(F)(F)F)ccc13)CCCCCC2 | logD | 3.2 |
| O=c1c2c([nH]c3cc(C(F)(F)F)ccc13)CCC2 | logD | 2.3 |
| COc1cc2[nH]c3c(c(=O)c2cc1C)CSCC3 | logD | 0.9 |
| Cc1cccc2c(=O)c3c([nH]c12)CCCC3 | logD | 1.9 |
| COc1cc2[nH]c3c(c(=O)c2cc1Cl)C[S+]([O-])CC3 (stereo not drawn) | logD | 1.3 |
| COc1cccc2c(=O)c3c([nH]c12)CCCC3 | logD | 1.7 |
| O=c1c2c([nH]c3c(Cl)cc(Cl)cc13)CCCC2 | logD | 3 |
| Cc1cccc2c(=O)c3c([nH]c12)CC(C)(C)CC3 | logD | 2.3 |
| O=c1c2c([nH]c3ccccc13)CCCC2 | logD | 3 |
| O=c1c2c([nH]c3ccc(Cl)cc13)CCCC2 | logD | 2 |
| O=c1c2c([nH]c3ccc(-c4ccc(F)cc4F)cc13)CCSC2 | logD | 3.6 |
| O=c1c2c([nH]c3ccc(Cl)cc13)CCC(F)(F)C2 | logD | 2 |
| COc1ccc2c(=O)c3c([nH]c2c1)CCC(F)(F)C3 | logD | 1.6 |
| O=c1c2c([nH]c3c(C(F)(F)F)cccc13)CCCC2 | logD | 2.6 |
| O=c1c2c([nH]c3cc(-c4ccc(Oc5ccc(OC(F)(F)F)cc5)cc4)ccc13)CCCC2 | logD | 3.8 |
